- assay system: T1, RXFP1 receptor (UniProt Q9HBX9 1-757, limits assumed)
- T1 sequence (looked up): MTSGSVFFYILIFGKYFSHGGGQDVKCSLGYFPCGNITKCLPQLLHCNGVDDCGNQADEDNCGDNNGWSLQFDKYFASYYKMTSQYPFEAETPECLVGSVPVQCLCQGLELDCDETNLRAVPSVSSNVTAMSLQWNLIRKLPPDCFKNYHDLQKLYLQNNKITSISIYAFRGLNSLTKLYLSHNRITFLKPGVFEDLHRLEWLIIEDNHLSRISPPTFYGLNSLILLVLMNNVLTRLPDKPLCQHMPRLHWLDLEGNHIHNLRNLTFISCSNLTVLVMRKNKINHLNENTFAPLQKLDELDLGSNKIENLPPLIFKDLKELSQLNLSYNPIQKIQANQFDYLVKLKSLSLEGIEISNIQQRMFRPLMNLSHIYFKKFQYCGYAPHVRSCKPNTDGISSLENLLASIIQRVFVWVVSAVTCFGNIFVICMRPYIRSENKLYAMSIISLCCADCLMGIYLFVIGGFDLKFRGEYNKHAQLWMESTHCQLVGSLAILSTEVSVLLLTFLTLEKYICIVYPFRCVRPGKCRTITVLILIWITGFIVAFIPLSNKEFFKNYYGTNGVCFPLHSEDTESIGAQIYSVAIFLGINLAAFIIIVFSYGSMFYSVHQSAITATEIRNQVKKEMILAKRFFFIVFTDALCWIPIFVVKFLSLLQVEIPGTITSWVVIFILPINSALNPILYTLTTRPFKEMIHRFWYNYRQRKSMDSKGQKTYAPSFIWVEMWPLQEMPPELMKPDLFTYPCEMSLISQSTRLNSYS
- assay method text: cell-based or functional assay
*1 amine or outer side, *2 acyl side, *3 side chain or, on linkers, in order; H or OH if unused. Primed or numbered codes have the meaning given here. Side-chain parts run from the residue outwards. [ ]: non-standard residue; d: D form. The star is where a group is joined. γGlu = O=C(O)[C@H](CCC(=O)[*:2])N[*:1]; Stearoyl = CCCCCCCCCCCCCCCCCC(=O)*; Lauroyl = CCCCCCCCCCCC(=O)*; Nle = CCCC[C@H](N)C(=O)O; PEG2′ = PEG2 spacer unit; PEG2″ = not defined here; Aib = CC(C)(N)C(=O)O
observation type: EMax, OVCAR 5 cells (cAMP) (%)

### Prompt Param item = Ac-LEGREKVRAQI[Aib][Aib]EG[Nle]STWS[Aib]RKK([PEG2″-PEG2″-γGlu-γGlu-γGlu-Stearoyl])-NH2 [peptide of SEQ ID NO: 67] ; retrieve measured EMax, OVCAR 5 cells (cAMP).
### Response 89

### Prompt Same for Ac-LEGREKVRLQI[Aib][Aib]EG[Nle]STWT[Aib]RKKK([PEG2″-PEG2″-PEG2″-γGlu-γGlu-γGlu-Stearoyl])-NH2 [peptide of SEQ ID NO: 77]
### Response 92

### Prompt Ac-LEGREKVRAK(Ac)I[Aib][Aib]EG[Nle]STWS[Aib]RKK(Ac)K([PEG2′-PEG2′-PEG2′-γGlu-γGlu-γGlu-Lauroyl])-NH2 [peptide of SEQ ID NO: 120] ?
### Response 92

Ref: patent US20190233493A1
